Test Protocol: Cytotoxicity against human MCF10A cells after 48 hrs by SRB assay
Format: cell-based, MCF-10A
# GI50 at 48 h values compiled below

>>> endpoint_result("O=C1C(=O)N(CN2CCCCC2)c2cccc(Cl)c21")
"70.7 µM"

Kindly review the next molecule as well.
Q: # query: GI50 at 48 h of entry `Cc1ccc2nc(/N=C3\C(=O)N(CN4CCOCC4)c4cccc(Cl)c43)sc2c1`
Ans: 62.3 µM

====

Test Protocol: Cytotoxicity against human MCF10A cells after 48 hrs by SRB assay
Type: cell-based, MCF-10A
# GI50 at 48 h values compiled below
Record the value in µM, omitting the unit from your answer.

Sample answers from the record:
>>> endpoint_result("Cc1ccc2nc(/N=C3\\C(=O)N(CN(C)C)c4cccc(Br)c43)sc2c1")
21.8
>>> endpoint_result("Cc1ccc2nc(/N=C3\\C(=O)N(CN(c4ccccc4)c4ccccc4)c4cccc(Br)c43)sc2c1")
67.9
>>> endpoint_result("O=C1C(=O)N(CN2CCOCC2)c2cccc(Br)c21")
82.3
>>> endpoint_result("CCN(CC)CCCC(C)Nc1ccnc2cc(Cl)ccc12 (stereo not drawn)")
81.3

Q: # query: GI50 at 48 h of entry `O=C1C(=O)N(CN2CCCCC2)c2ccccc21`
Ans: 41.8

Q: `Cc1ccc2nc(/N=C3\C(=O)N(CN4CCCCC4)c4cccc(Cl)c43)sc2c1` ?
Ans: 30.2

Q: `Cc1ccc2nc(/N=C3\C(=O)N(CN(C)C)c4ccccc43)sc2c1` ?
Ans: 13.4
